# SYSTEM NAME: T1, rat VPAC1 receptor (rat, UniProt P30083 31-459)
# T1 sequence (looked up): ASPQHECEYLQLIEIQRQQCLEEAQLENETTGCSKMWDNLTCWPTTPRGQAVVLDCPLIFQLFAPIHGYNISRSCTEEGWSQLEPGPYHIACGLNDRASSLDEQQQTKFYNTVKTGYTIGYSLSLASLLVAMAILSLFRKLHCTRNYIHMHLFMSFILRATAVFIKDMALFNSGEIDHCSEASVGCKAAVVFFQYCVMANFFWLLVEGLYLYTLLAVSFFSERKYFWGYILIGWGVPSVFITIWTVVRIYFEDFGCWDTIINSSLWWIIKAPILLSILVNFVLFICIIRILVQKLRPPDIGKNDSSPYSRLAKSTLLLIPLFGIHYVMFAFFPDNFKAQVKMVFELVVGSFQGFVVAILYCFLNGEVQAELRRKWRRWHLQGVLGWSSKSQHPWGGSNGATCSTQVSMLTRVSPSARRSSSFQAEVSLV
# EXPERIMENTAL DETAILS: cell-based or functional assay
Square brackets hold non-standard residues; d marks the D form. Ends that are not written are not given here. * marks the point of attachment. Orn = NCCC[C@H](N)C(=O)O; Hexanoyl = CCCCCC(=O)*; Aib = CC(C)(N)C(=O)O
MEASUREMENT TYPE: Rat VPAC1 Receptor: DiscoveRx (EC50; nM), cAMP generation
Report the value in nM with no unit label.

HSDAVFTDNYTXLRXQVAAXKSLQSIXNXGGPSSGAPPPS (N-terminal hexanoyl (C6); Orn at 12, 27 and 29; Aib at 15 and 20) [VPAC2 receptor peptide agonist P385] ... 96.8
Hexanoyl-HSDAVFTDNYTFLR[Aib]QVAA[Aib]KYLQSI[Orn]N[Orn]GGPSSGAPPPS [VPAC2 receptor peptide agonist P369] ... 130
HSDAVFTDNYTXLRXSVAAXKYLQSIXNXGGPSSGAPPPS (N-terminal hexanoyl (C6); Orn at 12, 27 and 29; Aib at 15 and 20) [VPAC2 receptor peptide agonist P390] ... 1.34
HSDAVFTDNYTRLRXQVAAXKYLQSIKXXGGPSSGAPPPS (N-terminal hexanoyl (C6); Aib at 15, 20 and 28; Orn at 29) [VPAC2 receptor peptide agonist P357] ... 0.69
HSDAVFTEQYTXLRXQLAAXXYLQSIXXGGPSSGAPPPS (N-terminal hexanoyl (C6); Tyr(OMe) at 10; Orn at 12, 21, 27 and 28; Aib at 15 and 20; C-terminal amide (-NH2)) [VPAC2 receptor peptide agonist P487] ... 1.42

Lookup: What does the record list as Rat VPAC1 Receptor: DiscoveRx (EC50; nM), cAMP generation for Hexanoyl-HSDAVFTDSYT[Orn]LR[Aib]QVAA[Aib]KYLQSI[Orn]N[Orn]GGPSSGAPPPS [VPAC2 receptor peptide agonist P392] ?
Found: 0.71
